Please go through the items and note down their mortality at 100 ppm.
# Test system: larvae of 28-spotted lady beetle (Epilachna vigintioctopunctana Fabricius)
# Experiment Notes: Test Example 8: insecticidal activity against larvae of 28-spotted lady beetle
# Format: in vivo
# Condition Context: 120 h
# unit: % | format: bare number

The reported mortality at 100 ppm of the compound CC(C)CN1C(=O)N(c2ccccc2)CSC1=NC(C)C was 100

Briefly, mortality at 100 ppm measured for Cc1ccc(N2CSC(=NC(C)C)N(C(C)C)C2=O)cc1 : 100

get_value(item= CCN=C1SCN(c2cc(Cl)cc(Cl)c2)C(=O)N1CC , readout=mortality at 100 ppm) returns 90

compound CC(C)N=C1SCN(c2ccccc2)C(=O)N1C(C)C , mortality at 100 ppm observed: 100

Looking up CCCN=C1SCN(c2ccccc2)C(=O)N1CCC , I see its mortality at 100 ppm listed as 80

compound CCC(C)N1C(=O)N(c2ccc(OC)cc2)CSC1=NC(C)(C)C (stereo not drawn) , mortality at 100 ppm observed: 100

Looking up CC(C)N=C1SCN(c2ccc(F)cc2)C(=O)N1C(C)C , I see its mortality at 100 ppm listed as 80

The compound listed as CCCN1C(=O)N(c2ccccc2)CSC1=NC(C)(C)C shows mortality at 100 ppm equal to 50

GET /value?item= Cc1ccccc1N1CSC(=NC(C)(C)C)N(C(C)C)C1=O &field=mortality at 100 ppm returns 80
